// data source = patent US20210246166A1

Kindly state human MASP1 IC50 for each of the entries shown.
# targetEntity: T1, recombinant human MASP1 active protease (amino acids 297-699, C-terminal His Tag) (human, UniProt P48740 297-699)
# T1 sequence: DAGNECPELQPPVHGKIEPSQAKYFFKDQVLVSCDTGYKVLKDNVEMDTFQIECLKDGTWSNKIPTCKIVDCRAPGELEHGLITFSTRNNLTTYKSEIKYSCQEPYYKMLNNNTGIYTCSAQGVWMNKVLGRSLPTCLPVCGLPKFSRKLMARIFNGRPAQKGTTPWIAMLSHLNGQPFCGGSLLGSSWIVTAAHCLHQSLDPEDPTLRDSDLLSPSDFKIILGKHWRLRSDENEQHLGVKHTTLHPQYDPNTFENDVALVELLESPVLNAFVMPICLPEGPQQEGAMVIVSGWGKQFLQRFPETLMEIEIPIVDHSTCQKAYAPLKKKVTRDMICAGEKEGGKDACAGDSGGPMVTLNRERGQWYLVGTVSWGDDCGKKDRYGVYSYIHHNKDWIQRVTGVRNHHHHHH
# testProtocol: cell-based or functional assay
Bridge positions count the residues as written; N and C are the ends. Square brackets hold non-standard residues; d marks the D form. Ends that are not written are not given here. aIle = CC[C@@H](C)[C@H](N)C(=O)O; 4Amb = NCc1ccc(C(=O)O)cc1; NMeC = CN[C@@H](CS)C(=O)O
The reply should contain only the number, in nM.

Could you share which human MASP1 IC50 value was measured for [4Amb]ICSRSLPPI[NMeC]IPD-NH2 (disulfide 3-11; N-terminus assumed; SMILES CC[C@H](C)[C@H](NC(=O)c1ccc(CN)cc1)C(=O)N[C@H]1CSSC[C@@H](C(=O)N[C@H](C(=O)N2CCC[C@H]2C(=O)N[C@@H](CC(=O)O)C(N)=O)[C@@H](C)CC)N(C)C(=O)[C@H]([C@@H](C)CC)NC(=O)[C@@H]2CCCN2C(=O)[C@@H]2CCCN2C(=O)[C@H](CC(C)C)NC(=O)[C@H](CO)NC(=O)[C@H](CCCNC(=N)N)NC(=O)[C@H](CO)NC1=O) [Example 362: (4-(Aminomethyl)benzoic acid)-IC+SRSLPPI-((N-Me)C)+IPD-NH2] ?
33

Which human MASP1 IC50 reading was recorded for the binder A[aIle]CSRSLPPICIPD-NH2 (disulfide 3-11; N-terminus assumed; SMILES CC[C@@H](C)[C@H](NC(=O)[C@H](C)N)C(=O)N[C@H]1CSSC[C@@H](C(=O)N[C@H](C(=O)N2CCC[C@H]2C(=O)N[C@@H](CC(=O)O)C(N)=O)[C@@H](C)CC)NC(=O)[C@H]([C@@H](C)CC)NC(=O)[C@@H]2CCCN2C(=O)[C@@H]2CCCN2C(=O)[C@H](CC(C)C)NC(=O)[C@H](CO)NC(=O)[C@H](CCCNC(=N)N)NC(=O)[C@H](CO)NC1=O) [Example 331: A-(allo-I)C+SRSLPPIC+IPD-NH2] ?
24
